Answer each item with its documented hemolysis at 60 min, 800 µg/mL.
- Assay protocol: in vitro
- Type: cell-based
- Measurement parameters: human, Hemolytic Activity (percentage hemolysis)
Non-standard residues stand in square brackets, D forms with d. Residues, ends and D or L forms follow the SMILES beside them. Gly(NCH2CH2Ph) = O=C(O)CNCCc1ccccc1; hLys = NCCCCC[C@H](N)C(=O)O; Nphe = O=C(O)CNCc1ccccc1; Orn = NCCC[C@H](N)C(=O)O
Write the quantity with the unit trailing the number.

Entry NCCCCC[C@H](NC(=O)CN(CCc1ccccc1)C(=O)[C@H](CCCCCN)NC(=O)CN(CCc1ccccc1)C(=O)[C@H](CCCCCN)NC(=O)CN(CCc1ccccc1)C(=O)[C@H](CCCCCN)NC(=O)CN(CCc1ccccc1)C(=O)[C@H](CCCCCN)NC(=O)CN(CCc1ccccc1)C(=O)[C@@H](N)CCCCCN)C(=O)N(CCc1ccccc1)CC(N)=O [Peptidomimetic 16] (H-[hLys][Gly(NCH2CH2Ph)][hLys][Gly(NCH2CH2Ph)][hLys][Gly(NCH2CH2Ph)][hLys][Gly(NCH2CH2Ph)][hLys][Gly(NCH2CH2Ph)][hLys][Gly(NCH2CH2Ph)]-NH2) — recorded hemolysis at 60 min, 800 µg/mL = 9%

Entry NCCC[C@H](NC(=O)CN(Cc1ccccc1)C(=O)[C@H](CCCN)NC(=O)CN(Cc1ccccc1)C(=O)[C@H](CCCN)NC(=O)CN(Cc1ccccc1)C(=O)[C@H](CCCN)NC(=O)CN(Cc1ccccc1)C(=O)[C@H](CCCN)NC(=O)CN(Cc1ccccc1)C(=O)[C@@H](N)CCCN)C(=O)N(CC(N)=O)Cc1ccccc1 [Peptidomimetic 10] (H-[Orn][Nphe][Orn][Nphe][Orn][Nphe][Orn][Nphe][Orn][Nphe][Orn][Nphe]-NH2) — recorded hemolysis at 60 min, 800 µg/mL = 10%

Entry NCCCC[C@H](NC(=O)CN(Cc1ccccc1)C(=O)[C@H](CCCCN)NC(=O)CN(Cc1ccccc1)C(=O)[C@H](CCCCN)NC(=O)CN(Cc1ccccc1)C(=O)[C@H](CCCCN)NC(=O)CN(Cc1ccccc1)C(=O)[C@H](CCCCN)NC(=O)CN(Cc1ccccc1)C(=O)[C@@H](N)CCCCN)C(=O)N(CC(N)=O)Cc1ccccc1 [Peptidomimetic 11] (H-K[Nphe]K[Nphe]K[Nphe]K[Nphe]K[Nphe]K[Nphe]-NH2) — recorded hemolysis at 60 min, 800 µg/mL = 10%

* * *

- Test system: A. baumannii ATCC 19606
- Assay type: cell-based
- Measurement parameters: ATCC 19606, 20 h
Non-standard residues stand in square brackets, D forms with d. Residues, ends and D or L forms follow the SMILES beside them. hPhe = N[C@@H](CCc1ccccc1)C(=O)O; Gly(N(CH2)3NH2) = NCCCNCC(=O)O
Property name: MIC

Entry NCCCNCC(=O)N[C@@H](CCc1ccccc1)C(=O)N(CCCN)CC(=O)N[C@@H](CCc1ccccc1)C(=O)N(CCCN)CC(=O)N[C@@H](CCc1ccccc1)C(=O)N(CCCN)CC(=O)N[C@@H](CCc1ccccc1)C(=O)N(CCCN)CC(=O)N[C@@H](CCc1ccccc1)C(=O)N(CCCN)CC(=O)N[C@@H](CCc1ccccc1)C(N)=O [Peptidomimetic 6] (H-[Gly(N(CH2)3NH2)][hPhe][Gly(N(CH2)3NH2)][hPhe][Gly(N(CH2)3NH2)][hPhe][Gly(N(CH2)3NH2)][hPhe][Gly(N(CH2)3NH2)][hPhe][Gly(N(CH2)3NH2)][hPhe]-NH2) — recorded MIC = >64 µg/mL

* * *

- Assay protocol: in vitro
- Format: cell-based
- Measurement parameters: human
Non-standard residues stand in square brackets, D forms with d. Residues, ends and D or L forms follow the SMILES beside them. Gly(N(CH2)3NH2) = NCCCNCC(=O)O; hLys = NCCCCC[C@H](N)C(=O)O; Nphe = O=C(O)CNCc1ccccc1; Nlys = NCCCCNCC(=O)O
true if viability at 48 h, 1280 µg/mL is below 50%. false if not; exact matches included in false.

## Input Given NCCCCC[C@H](NC(=O)CN(Cc1ccccc1)C(=O)[C@H](CCCCCN)NC(=O)CN(Cc1ccccc1)C(=O)[C@H](CCCCCN)NC(=O)CN(Cc1ccccc1)C(=O)[C@H](CCCCCN)NC(=O)CN(Cc1ccccc1)C(=O)[C@H](CCCCCN)NC(=O)CN(Cc1ccccc1)C(=O)[C@@H](N)CCCCCN)C(=O)N(CC(N)=O)Cc1ccccc1 [Peptidomimetic 12] (H-[hLys][Nphe][hLys][Nphe][hLys][Nphe][hLys][Nphe][hLys][Nphe][hLys][Nphe]-NH2) , is recorded viability at 48 h, 1280 µg/mL strictly lower than 50%?
## Output true

## Input Given NCCCNCC(=O)N[C@@H](Cc1ccccc1)C(=O)N(CCCN)CC(=O)N[C@@H](Cc1ccccc1)C(=O)N(CCCN)CC(=O)N[C@@H](Cc1ccccc1)C(=O)N(CCCN)CC(=O)N[C@@H](Cc1ccccc1)C(=O)N(CCCN)CC(=O)N[C@@H](Cc1ccccc1)C(=O)N(CCCN)CC(=O)N[C@@H](Cc1ccccc1)C(N)=O [Peptidomimetic 2] (H-[Gly(N(CH2)3NH2)]F[Gly(N(CH2)3NH2)]F[Gly(N(CH2)3NH2)]F[Gly(N(CH2)3NH2)]F[Gly(N(CH2)3NH2)]F[Gly(N(CH2)3NH2)]F-NH2) , is recorded viability at 48 h, 1280 µg/mL strictly lower than 50%?
## Output false

## Input Given NCCCC[C@H](NC(=O)CN(Cc1ccccc1)C(=O)[C@H](CCCCN)NC(=O)CN(Cc1ccccc1)C(=O)[C@H](CCCCN)NC(=O)CN(Cc1ccccc1)C(=O)[C@H](CCCCN)NC(=O)CN(Cc1ccccc1)C(=O)[C@H](CCCCN)NC(=O)CN(Cc1ccccc1)C(=O)[C@@H](N)CCCCN)C(=O)N(CC(N)=O)Cc1ccccc1 [Peptidomimetic 11] (H-K[Nphe]K[Nphe]K[Nphe]K[Nphe]K[Nphe]K[Nphe]-NH2) , is recorded viability at 48 h, 1280 µg/mL strictly lower than 50%?
## Output false

## Input Given NCCCCNCC(=O)N[C@@H](Cc1ccccc1)C(=O)N(CCCCN)CC(=O)N[C@@H](Cc1ccccc1)C(=O)N(CCCCN)CC(=O)N[C@@H](Cc1ccccc1)C(=O)N(CCCCN)CC(=O)N[C@@H](Cc1ccccc1)C(=O)N(CCCCN)CC(=O)N[C@@H](Cc1ccccc1)C(=O)N(CCCCN)CC(=O)N[C@@H](Cc1ccccc1)C(N)=O [Peptidomimetic 3] (H-[Nlys]F[Nlys]F[Nlys]F[Nlys]F[Nlys]F[Nlys]F-NH2) , is recorded viability at 48 h, 1280 µg/mL strictly lower than 50%?
## Output false

* * *

- Test system: A. baumannii ATCC 19606
- Assay type: cell-based
- Measurement parameters: ATCC 19606, 20 h
Non-standard residues stand in square brackets, D forms with d. Residues, ends and D or L forms follow the SMILES beside them. Gly(NCH2CH2Ph) = O=C(O)CNCCc1ccccc1; Gly(N-2-aminoethyl) = NCCNCC(=O)O; Orn = NCCC[C@H](N)C(=O)O
Answer each item with its documented MIC.

Entry NCCC[C@H](NC(=O)CN(CCc1ccccc1)C(=O)[C@H](CCCN)NC(=O)CN(CCc1ccccc1)C(=O)[C@H](CCCN)NC(=O)CN(CCc1ccccc1)C(=O)[C@H](CCCN)NC(=O)CN(CCc1ccccc1)C(=O)[C@H](CCCN)NC(=O)CN(CCc1ccccc1)C(=O)[C@@H](N)CCCN)C(=O)N(CCc1ccccc1)CC(N)=O [Peptidomimetic 14] (H-[Orn][Gly(NCH2CH2Ph)][Orn][Gly(NCH2CH2Ph)][Orn][Gly(NCH2CH2Ph)][Orn][Gly(NCH2CH2Ph)][Orn][Gly(NCH2CH2Ph)][Orn][Gly(NCH2CH2Ph)]-NH2) — recorded MIC = >64 µg/mL

Entry NCCNCC(=O)N[C@@H](Cc1ccccc1)C(=O)N(CCN)CC(=O)N[C@@H](Cc1ccccc1)C(=O)N(CCN)CC(=O)N[C@@H](Cc1ccccc1)C(=O)N(CCN)CC(=O)N[C@@H](Cc1ccccc1)C(=O)N(CCN)CC(=O)N[C@@H](Cc1ccccc1)C(=O)N(CCN)CC(=O)N[C@@H](Cc1ccccc1)C(N)=O [Peptidomimetic 1] (H-[Gly(N-2-aminoethyl)]F[Gly(N-2-aminoethyl)]F[Gly(N-2-aminoethyl)]F[Gly(N-2-aminoethyl)]F[Gly(N-2-aminoethyl)]F[Gly(N-2-aminoethyl)]F-NH2) — recorded MIC = >64 µg/mL

* * *

- Assay protocol: Relative hydrophobicity by RP-HPLC (% MeCN at peak elution)
- Type: physicochemical
- Measurement parameters: RP-HPLC gradient 0 → 60% B during 10 min; % MeCN at peak elution calculated from retention time
Non-standard residues stand in square brackets, D forms with d. Residues, ends and D or L forms follow the SMILES beside them. Gly(NCH2CH2Ph) = O=C(O)CNCCc1ccccc1; Gly(N-2-aminoethyl) = NCCNCC(=O)O; hPhe = N[C@@H](CCc1ccccc1)C(=O)O; Gly(N(CH2)3NH2) = NCCCNCC(=O)O; hLys = NCCCCC[C@H](N)C(=O)O; Nphe = O=C(O)CNCc1ccccc1; Orn = NCCC[C@H](N)C(=O)O
Answer each item with its documented Hydrophobicity (% MeCN at elution).
Numeric answer only, unit % assumed.

Entry NCCCC[C@H](NC(=O)CN(Cc1ccccc1)C(=O)[C@H](CCCCN)NC(=O)CN(Cc1ccccc1)C(=O)[C@H](CCCCN)NC(=O)CN(Cc1ccccc1)C(=O)[C@H](CCCCN)NC(=O)CN(Cc1ccccc1)C(=O)[C@H](CCCCN)NC(=O)CN(Cc1ccccc1)C(=O)[C@@H](N)CCCCN)C(=O)N(CC(N)=O)Cc1ccccc1 [Peptidomimetic 11] (H-K[Nphe]K[Nphe]K[Nphe]K[Nphe]K[Nphe]K[Nphe]-NH2) — recorded Hydrophobicity (% MeCN at elution) = 36.9

Entry NCCCCC[C@H](NC(=O)CN(CCc1ccccc1)C(=O)[C@H](CCCCCN)NC(=O)CN(CCc1ccccc1)C(=O)[C@H](CCCCCN)NC(=O)CN(CCc1ccccc1)C(=O)[C@H](CCCCCN)NC(=O)CN(CCc1ccccc1)C(=O)[C@H](CCCCCN)NC(=O)CN(CCc1ccccc1)C(=O)[C@@H](N)CCCCCN)C(=O)N(CCc1ccccc1)CC(N)=O [Peptidomimetic 16] (H-[hLys][Gly(NCH2CH2Ph)][hLys][Gly(NCH2CH2Ph)][hLys][Gly(NCH2CH2Ph)][hLys][Gly(NCH2CH2Ph)][hLys][Gly(NCH2CH2Ph)][hLys][Gly(NCH2CH2Ph)]-NH2) — recorded Hydrophobicity (% MeCN at elution) = 41.1

Entry NCCNCC(=O)N[C@@H](Cc1ccccc1)C(=O)N(CCN)CC(=O)N[C@@H](Cc1ccccc1)C(=O)N(CCN)CC(=O)N[C@@H](Cc1ccccc1)C(=O)N(CCN)CC(=O)N[C@@H](Cc1ccccc1)C(=O)N(CCN)CC(=O)N[C@@H](Cc1ccccc1)C(=O)N(CCN)CC(=O)N[C@@H](Cc1ccccc1)C(N)=O [Peptidomimetic 1] (H-[Gly(N-2-aminoethyl)]F[Gly(N-2-aminoethyl)]F[Gly(N-2-aminoethyl)]F[Gly(N-2-aminoethyl)]F[Gly(N-2-aminoethyl)]F[Gly(N-2-aminoethyl)]F-NH2) — recorded Hydrophobicity (% MeCN at elution) = 37.5

Entry NCCCNCC(=O)N[C@@H](Cc1ccccc1)C(=O)N(CCCN)CC(=O)N[C@@H](Cc1ccccc1)C(=O)N(CCCN)CC(=O)N[C@@H](Cc1ccccc1)C(=O)N(CCCN)CC(=O)N[C@@H](Cc1ccccc1)C(=O)N(CCCN)CC(=O)N[C@@H](Cc1ccccc1)C(=O)N(CCCN)CC(=O)N[C@@H](Cc1ccccc1)C(N)=O [Peptidomimetic 2] (H-[Gly(N(CH2)3NH2)]F[Gly(N(CH2)3NH2)]F[Gly(N(CH2)3NH2)]F[Gly(N(CH2)3NH2)]F[Gly(N(CH2)3NH2)]F[Gly(N(CH2)3NH2)]F-NH2) — recorded Hydrophobicity (% MeCN at elution) = 35.7

Entry NCCCNCC(=O)N[C@@H](CCc1ccccc1)C(=O)N(CCCN)CC(=O)N[C@@H](CCc1ccccc1)C(=O)N(CCCN)CC(=O)N[C@@H](CCc1ccccc1)C(=O)N(CCCN)CC(=O)N[C@@H](CCc1ccccc1)C(=O)N(CCCN)CC(=O)N[C@@H](CCc1ccccc1)C(=O)N(CCCN)CC(=O)N[C@@H](CCc1ccccc1)C(N)=O [Peptidomimetic 6] (H-[Gly(N(CH2)3NH2)][hPhe][Gly(N(CH2)3NH2)][hPhe][Gly(N(CH2)3NH2)][hPhe][Gly(N(CH2)3NH2)][hPhe][Gly(N(CH2)3NH2)][hPhe][Gly(N(CH2)3NH2)][hPhe]-NH2) — recorded Hydrophobicity (% MeCN at elution) = 41.2

Entry NCCC[C@H](NC(=O)CN(CCc1ccccc1)C(=O)[C@H](CCCN)NC(=O)CN(CCc1ccccc1)C(=O)[C@H](CCCN)NC(=O)CN(CCc1ccccc1)C(=O)[C@H](CCCN)NC(=O)CN(CCc1ccccc1)C(=O)[C@H](CCCN)NC(=O)CN(CCc1ccccc1)C(=O)[C@@H](N)CCCN)C(=O)N(CCc1ccccc1)CC(N)=O [Peptidomimetic 14] (H-[Orn][Gly(NCH2CH2Ph)][Orn][Gly(NCH2CH2Ph)][Orn][Gly(NCH2CH2Ph)][Orn][Gly(NCH2CH2Ph)][Orn][Gly(NCH2CH2Ph)][Orn][Gly(NCH2CH2Ph)]-NH2) — recorded Hydrophobicity (% MeCN at elution) = 40.5

Entry NCCCC[C@H](NC(=O)CN(CCc1ccccc1)C(=O)[C@H](CCCCN)NC(=O)CN(CCc1ccccc1)C(=O)[C@H](CCCCN)NC(=O)CN(CCc1ccccc1)C(=O)[C@H](CCCCN)NC(=O)CN(CCc1ccccc1)C(=O)[C@H](CCCCN)NC(=O)CN(CCc1ccccc1)C(=O)[C@@H](N)CCCCN)C(=O)N(CCc1ccccc1)CC(N)=O [Peptidomimetic 15] (H-K[Gly(NCH2CH2Ph)]K[Gly(NCH2CH2Ph)]K[Gly(NCH2CH2Ph)]K[Gly(NCH2CH2Ph)]K[Gly(NCH2CH2Ph)]K[Gly(NCH2CH2Ph)]-NH2) — recorded Hydrophobicity (% MeCN at elution) = 40.5

Entry NCCCCC[C@H](NC(=O)CN(Cc1ccccc1)C(=O)[C@H](CCCCCN)NC(=O)CN(Cc1ccccc1)C(=O)[C@H](CCCCCN)NC(=O)CN(Cc1ccccc1)C(=O)[C@H](CCCCCN)NC(=O)CN(Cc1ccccc1)C(=O)[C@H](CCCCCN)NC(=O)CN(Cc1ccccc1)C(=O)[C@@H](N)CCCCCN)C(=O)N(CC(N)=O)Cc1ccccc1 [Peptidomimetic 12] (H-[hLys][Nphe][hLys][Nphe][hLys][Nphe][hLys][Nphe][hLys][Nphe][hLys][Nphe]-NH2) — recorded Hydrophobicity (% MeCN at elution) = 38.0
